# Lookup of reported cell viability keyed by entry
# System: ED cells (E. derm NBM-6, ATCC CCL-57)
# assay-overview: cell viability (ATP, CellTiter-Glo) relative to untreated control (fraction of control); higher = less cytotoxic
# condition-description: 80 µM; incubation time: 72h
Format: numeric value only, no unit, no commentary.

GET /values?readout=cell viability&item= `Cc1nnc(C(=O)NC(C)(C)c2nc(C(=O)NCc3ccc(F)cc3)c(O)c(=O)n2C)o1`
1.01

Need cell viability of `Cc1ccnc2c1NC(=O)c1cccnc1N2C1CC1` , thanks.
1.03

Name the reported cell viability value associated with the compound `Cc1cc(C#N)cc(C)c1Oc1nc(Nc2ccc(C#N)cc2)nc(N)c1Br`
0.75

Any idea what its cell viability is? The compound is `CC(C)c1nc(CN(C)C(=O)N[C@H](C(=O)N[C@@H](Cc2ccccc2)C[C@H](O)[C@H](Cc2ccccc2)NC(=O)OCc2cncs2)C(C)C)cs1`
0.00794

Consider the compound `Cc1cn([C@H]2C[C@H](N=[N+]=[N-])[C@@H](CO)O2)c(=O)[nH]c1=O` and give its measured cell viability.
1.07

Fill in the blank: the reported cell viability of `Nc1nc(NC2CC2)c2ncn([C@H]3C=C[C@@H](CO)C3)c2n1` is ____.
0.785

***
Name the reported cell viability value associated with the compound `COC(=O)N[C@H](C(=O)N[C@@H](Cc1ccccc1)[C@@H](O)CN(Cc1ccc(-c2ccccn2)cc1)NC(=O)[C@@H](NC(=O)OC)C(C)(C)C)C(C)(C)C`
0.802

Data request, read-out cell viability, for `Nc1nc(=O)n([C@@H]2CS[C@H](CO)O2)cc1F`
1.04

====

# Test system: ED cells (E. derm NBM-6, ATCC CCL-57)
# assay-overview: cell viability (ATP, CellTiter-Glo) relative to untreated control (fraction of control); higher = less cytotoxic
# condition-description: 200 µM; incubation time: 72h
Field: label. Allowed values: met (cell viability < 0.6) or not met (cell viability >= 0.6).

Take the compound `Cc1ccnc2c1NC(=O)c1cccnc1N2C1CC1` and say whether its cell viability is less than 0.6.
not met

Does the reported cell viability of `Cc1cc(C#N)cc(C)c1Oc1nc(Nc2ccc(C#N)cc2)nc(N)c1Br` stay below 0.6?
met

# check: cell viability < 0.6 for `Cc1nnc(C(=O)NC(C)(C)c2nc(C(=O)NCc3ccc(F)cc3)c(O)c(=O)n2C)o1`
not met

In plain terms, does `Nc1nc(=O)n([C@@H]2CS[C@H](CO)O2)cc1F` come in under 0.6 for cell viability?
not met

Further cases:
Please check: cell viability for `Cc1cn([C@H]2C[C@H](N=[N+]=[N-])[C@@H](CO)O2)c(=O)[nH]c1=O` , strictly under 0.6 or not?
not met

Dear colleague, could you confirm whether cell viability of `CC(C)c1nc(CN(C)C(=O)N[C@H](C(=O)N[C@@H](Cc2ccccc2)C[C@H](O)[C@H](Cc2ccccc2)NC(=O)OCc2cncs2)C(C)C)cs1` falls below 0.6? Thanks.
met

====

# Tested on: ED cells (E. derm NBM-6, ATCC CCL-57)
# assay-overview: cell viability (ATP, CellTiter-Glo) relative to untreated control (fraction of control); higher = less cytotoxic
# condition-description: 50 µM; incubation time: 144h
Structures can show the parent of a compound that is named as a salt.
measurement-name: cell viability
Keep it simple and answer with nothing but the number.

Which cell viability is reported for this compound? `Nc1ccn([C@@H]2CS[C@H](CO)O2)c(=O)n1`
1.03

---
Requested field: cell viability. Item: `O=C1Nc2ccc(Cl)cc2[C@@](C#CC2CC2)(C(F)(F)F)O1`
0.574

Give the measured cell viability of CC(C)OC(=O)OCOP(=O)(CO[C@H](C)Cn1cnc2c(N)ncnc21)OCOC(=O)OC(C)C [tenofovir disoproxil fumarate] .
0.737

I have this compound here, `COC(=O)N[C@H](C(=O)N[C@@H](Cc1ccccc1)[C@@H](O)CN(Cc1ccc(-c2ccccn2)cc1)NC(=O)[C@@H](NC(=O)OC)C(C)(C)C)C(C)(C)C` , and I need its recorded cell viability.
1.04

Field request: cell viability | item: `Cc1ccnc2c1NC(=O)c1cccnc1N2C1CC1`
0.989

Tell me the measured cell viability of `Cc1cc(C#N)cc(C)c1Oc1nc(Nc2ccc(C#N)cc2)nc(N)c1Br` , please.
0.835

Item under review: `CC(C)(C)NC(=O)[C@@H]1C[C@@H]2CCCC[C@@H]2CN1C[C@@H](O)[C@H](Cc1ccccc1)NC(=O)[C@H](CC(N)=O)NC(=O)c1ccc2ccccc2n1` . Reported cell viability?
0.201

====

# System: ED cells (E. derm NBM-6, ATCC CCL-57)
# assay-overview: cell viability (ATP, CellTiter-Glo) relative to untreated control (fraction of control); higher = less cytotoxic
# condition-description: 10 µM; incubation time: 24h
Counter-ions that a name gives are not always drawn.
measurement-name: cell viability

Here are 7 compounds together with their reported answers.
For the compound CC(C)c1nc(CN(C)C(=O)N[C@H](C(=O)N[C@@H](Cc2ccccc2)C[C@H](O)[C@H](Cc2ccccc2)NC(=O)OCc2cncs2)C(C)C)cs1 [ritonavir] , what cell viability is on record?
0.922

Reported cell viability for Cc1cn([C@H]2C[C@H](N=[N+]=[N-])[C@@H](CO)O2)c(=O)[nH]c1=O [zidovudine] : what is it?
1.02

Fill in the blank: the reported cell viability of Cc1cc(C#N)cc(C)c1Oc1nc(Nc2ccc(C#N)cc2)nc(N)c1Br [etravirine] is ____.
0.986

For Nc1nc(=O)n([C@@H]2CS[C@H](CO)O2)cc1F [emtricitabine] , what is its reported cell viability?
1.04

Requested field: cell viability. Item: Cc1ccnc2c1NC(=O)c1cccnc1N2C1CC1 [nevirapine]
1.07

Consider the compound CC(C)OC(=O)OCOP(=O)(CO[C@H](C)Cn1cnc2c(N)ncnc21)OCOC(=O)OC(C)C [tenofovir disoproxil fumarate] and give its measured cell viability.
0.98

I have this compound here, Nc1nc(NC2CC2)c2ncn([C@H]3C=C[C@@H](CO)C3)c2n1 [abacavir] , and I need its recorded cell viability.
1.01

As a next step, examine the compound that follows.
Look up cell viability: Cc1nnc(C(=O)NC(C)(C)c2nc(C(=O)NCc3ccc(F)cc3)c(O)c(=O)n2C)o1 [raltegravir]
1.03

====

# Tested on: ED cells (E. derm NBM-6, ATCC CCL-57)
# assay-overview: cell viability (ATP, CellTiter-Glo) relative to untreated control (fraction of control); higher = less cytotoxic
# condition-description: 0.5 µM; incubation time: 72h
Where a name gives a salt, the structure may show the parent alone.
measurement-name: cell viability
Write no unit; give the number alone.

Solved cases (2 shown):
Please provide the recorded cell viability for `CCC[C@@]1(CCc2ccccc2)CC(O)=C([C@H](CC)c2cccc(NS(=O)(=O)c3ccc(C(F)(F)F)cn3)c2)C(=O)O1` , tested on ED cells (E. derm NBM-6, ATCC CCL-57).
1.04

# get_value(readout= cell viability, system= ED cells (E. derm NBM-6, ATCC CCL-57)) for `CC(C)CN(C[C@@H](OP(=O)(O)O)[C@H](Cc1ccccc1)NC(=O)O[C@H]1CCOC1)S(=O)(=O)c1ccc(N)cc1`
1.08

More entries:
Observed cell viability on ED cells (E. derm NBM-6, ATCC CCL-57) for `Nc1ccn([C@@H]2CS[C@H](CO)O2)c(=O)n1` , please.
1.03

Give recorded cell viability with ED cells (E. derm NBM-6, ATCC CCL-57) for the following compound: `Cc1cn([C@H]2C[C@H](N=[N+]=[N-])[C@@H](CO)O2)c(=O)[nH]c1=O`
1.07

Requested read-out cell viability, target or system ED cells (E. derm NBM-6, ATCC CCL-57), entry `Nc1nc(=O)n([C@@H]2CS[C@H](CO)O2)cc1F`
1.03

Field: cell viability (ED cells (E. derm NBM-6, ATCC CCL-57)). Entry: CC(C)OC(=O)OCOP(=O)(CO[C@H](C)Cn1cnc2c(N)ncnc21)OCOC(=O)OC(C)C [tenofovir disoproxil fumarate]
1

Param readout= cell viability; system= ED cells (E. derm NBM-6, ATCC CCL-57); entry= `Nc1nc(NC2CC2)c2ncn([C@H]3C=C[C@@H](CO)C3)c2n1` ; returns value.
1.02

API: value(readout= cell viability, system= ED cells (E. derm NBM-6, ATCC CCL-57), query= `Cc1cc(C#N)cc(C)c1Oc1nc(Nc2ccc(C#N)cc2)nc(N)c1Br` )
1.01

Query for ED cells (E. derm NBM-6, ATCC CCL-57): what cell viability does the record show for `CC(C)(C)NC(=O)[C@@H]1C[C@@H]2CCCC[C@@H]2CN1C[C@@H](O)[C@H](Cc1ccccc1)NC(=O)[C@H](CC(N)=O)NC(=O)c1ccc2ccccc2n1` ?
1.03

# returns recorded cell viability (system: ED cells (E. derm NBM-6, ATCC CCL-57)) for `Cc1nnc(C(=O)NC(C)(C)c2nc(C(=O)NCc3ccc(F)cc3)c(O)c(=O)n2C)o1`
1.03

Identify the measured cell viability of `O=C1Nc2ccc(Cl)cc2[C@@](C#CC2CC2)(C(F)(F)F)O1` for ED cells (E. derm NBM-6, ATCC CCL-57).
1.04

Taken from the supplement of paper PMC11699113.
